# measurementNotes: Inhibition of [3H]spiperone binding to Dopamine receptor D3 in bovine cortex
pKi: −log10 of the molar value.
outcomeMeasure: pKi

>>> observedvalue("O=C1CC2(CCCC2)CC(=O)N1CCCCN1CCN(c2ncccn2)CC1 [BUSPAR]")
6.18

The measurements presented in this section are drawn from BindingDB's records for doi:10.1021/jm950759z.
